tested on: HCT-15 colon; assay: NCI tumour cell line growth inhibition, 48 h
measured_metric: TGI

Worked cases, answers included:
[
  {
    "molecule": "NC(N)=NCCC(O)(P(=O)(O)O)P(=O)(O)O",
    "TGI": "> 100 µM"
  },
  {
    "molecule": "COc1cc(CNc2nc3ccccc3nc2C(=O)O)cc(OC)c1OC",
    "TGI": "> 100 µM"
  },
  {
    "molecule": "Cc1cc2c(cc1C)[n+](=O)c(C(=O)c1ccccc1)c(C(F)(F)F)n2[O-]",
    "TGI": "> 34.4 µM"
  },
  {
    "molecule": "N#CNc1nc(N)c(-c2ccc(Cl)cc2)c(C(=O)Nc2nccs2)n1",
    "TGI": "> 100 µM"
  },
  {
    "molecule": "CC1(C)CC(=O)c2c(nc3c4c([nH]c(-c5ccc(Br)cc5)c24)CC(C)(C)C3)C1",
    "TGI": "> 100 µM"
  }
]

Req: # query: TGI of entry CC1C=CC(OC(=O)C(C)(O)CCC(O)(C(=O)OC2CC(O)C(C(C)C)CC2(C)O)C(C)C)(C(C)C)CC1 (centres undefined)
Resp: 0.869 µM

Req: # query: TGI of entry COc1ccc(/C=C(\C)[N+](=O)[O-])cc1OC
Resp: 3.54 µM

Req: # query: TGI of entry CC[C@@]1(O)C(=O)OCc2c1cc1n(c2=O)Cc2c-1nc1ccccc1c2/C=N\NC(=O)C(N)CCSC (some centres undefined)
Resp: > 90.3 µM

###

test system: MOLT-4 leukemia; test: NCI tumour cell line growth inhibition, 48 h; in the data active = GI50 below about 0.43 µM; inactive = the rest
Answer with one of the outcomes active, inactive

[
  {
    "compound": "Cc1ccc(C2C3Cc4ccccc4C3=NN2c2ccc(S(=O)(=O)/N=c3\\scc(-c4ccccc4)n3-c3ccccc3)cc2)cc1 (stereo unspecified)",
    "group": "inactive"
  },
  {
    "compound": "CC1c2ccccc2CCN1c1ccc(CO)c(Cl)c1 (stereo unspecified)",
    "group": "inactive"
  },
  {
    "compound": "CSc1ccc(C2=NN(C(C)=O)C(c3ccc(-c4ccc(Cl)cc4)o3)C2)cc1 (stereo unspecified)",
    "group": "inactive"
  },
  {
    "compound": "COc1cc(C(=O)Nc2cc(O)c(CC=C(C)C)c(O)c2)cc2c1O[C@]1(C)CC[C@@H](O)C(C)(C)[C@H]1C2",
    "group": "active"
  },
  {
    "compound": "CCOC(=O)c1cc2c(cc1Cl)SC(=Nc1ccccc1)N(S(=O)(=O)c1ccc(Br)s1)S2(=O)=O",
    "group": "inactive"
  },
  {
    "compound": "C=C1[C@@H](O)O[C@H]2[C@H]1C[C@H](OC(C)=O)[C@]13C(=O)O[C@H]4C[C@](C)(O)[C@H]([C@H]41)C31C=C(C)[C@]2(O)O1",
    "group": "inactive"
  },
  {
    "compound": "N/C(=N\\OC(=O)c1ccccc1)C(Cc1ccccc1)C(=O)NOC(=O)c1ccccc1 (stereo unspecified)",
    "group": "inactive"
  },
  {
    "compound": "COc1ccc2c(-c3ccnc(Nc4cccc(OC(F)(F)F)c4)n3)cnn2n1",
    "group": "inactive"
  }
]

Req: Recorded call for COc1ccc(/C=C(\C)[N+](=O)[O-])cc1OC ?
Resp: inactive

Req: Recorded call for Cc1ccncc1C(N)=O ?
Resp: inactive

Req: Recorded call for COc1cc(C(=O)c2cc(C)c3[nH]c4ccc(O)cc4c3c2C)cc(OC)c1OC ?
Resp: active
